Target: CK1α (Homo sapiens, UniProt P48729+Q96SW2)
Sequence (P48729 whole entry): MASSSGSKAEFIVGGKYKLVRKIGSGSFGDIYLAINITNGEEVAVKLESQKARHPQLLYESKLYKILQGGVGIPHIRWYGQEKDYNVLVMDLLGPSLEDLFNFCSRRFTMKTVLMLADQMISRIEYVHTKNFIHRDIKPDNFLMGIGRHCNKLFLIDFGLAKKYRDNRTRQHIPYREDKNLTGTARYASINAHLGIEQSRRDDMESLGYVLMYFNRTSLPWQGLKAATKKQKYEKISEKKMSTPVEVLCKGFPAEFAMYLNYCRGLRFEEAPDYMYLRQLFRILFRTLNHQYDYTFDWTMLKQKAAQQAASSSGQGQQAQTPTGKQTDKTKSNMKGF
Sequence (Q96SW2 whole entry): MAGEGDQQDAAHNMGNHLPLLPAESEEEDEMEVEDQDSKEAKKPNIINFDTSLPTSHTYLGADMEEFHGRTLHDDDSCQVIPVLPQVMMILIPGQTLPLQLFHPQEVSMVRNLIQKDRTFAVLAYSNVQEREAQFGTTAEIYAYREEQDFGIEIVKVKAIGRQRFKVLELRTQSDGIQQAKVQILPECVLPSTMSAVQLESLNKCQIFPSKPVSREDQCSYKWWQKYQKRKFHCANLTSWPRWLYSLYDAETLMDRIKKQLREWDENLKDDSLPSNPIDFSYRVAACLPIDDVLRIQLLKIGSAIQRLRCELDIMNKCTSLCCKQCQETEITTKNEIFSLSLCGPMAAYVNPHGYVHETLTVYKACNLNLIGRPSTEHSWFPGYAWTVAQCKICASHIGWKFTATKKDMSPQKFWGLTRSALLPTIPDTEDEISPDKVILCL
Sequence (Q16531 whole entry partner): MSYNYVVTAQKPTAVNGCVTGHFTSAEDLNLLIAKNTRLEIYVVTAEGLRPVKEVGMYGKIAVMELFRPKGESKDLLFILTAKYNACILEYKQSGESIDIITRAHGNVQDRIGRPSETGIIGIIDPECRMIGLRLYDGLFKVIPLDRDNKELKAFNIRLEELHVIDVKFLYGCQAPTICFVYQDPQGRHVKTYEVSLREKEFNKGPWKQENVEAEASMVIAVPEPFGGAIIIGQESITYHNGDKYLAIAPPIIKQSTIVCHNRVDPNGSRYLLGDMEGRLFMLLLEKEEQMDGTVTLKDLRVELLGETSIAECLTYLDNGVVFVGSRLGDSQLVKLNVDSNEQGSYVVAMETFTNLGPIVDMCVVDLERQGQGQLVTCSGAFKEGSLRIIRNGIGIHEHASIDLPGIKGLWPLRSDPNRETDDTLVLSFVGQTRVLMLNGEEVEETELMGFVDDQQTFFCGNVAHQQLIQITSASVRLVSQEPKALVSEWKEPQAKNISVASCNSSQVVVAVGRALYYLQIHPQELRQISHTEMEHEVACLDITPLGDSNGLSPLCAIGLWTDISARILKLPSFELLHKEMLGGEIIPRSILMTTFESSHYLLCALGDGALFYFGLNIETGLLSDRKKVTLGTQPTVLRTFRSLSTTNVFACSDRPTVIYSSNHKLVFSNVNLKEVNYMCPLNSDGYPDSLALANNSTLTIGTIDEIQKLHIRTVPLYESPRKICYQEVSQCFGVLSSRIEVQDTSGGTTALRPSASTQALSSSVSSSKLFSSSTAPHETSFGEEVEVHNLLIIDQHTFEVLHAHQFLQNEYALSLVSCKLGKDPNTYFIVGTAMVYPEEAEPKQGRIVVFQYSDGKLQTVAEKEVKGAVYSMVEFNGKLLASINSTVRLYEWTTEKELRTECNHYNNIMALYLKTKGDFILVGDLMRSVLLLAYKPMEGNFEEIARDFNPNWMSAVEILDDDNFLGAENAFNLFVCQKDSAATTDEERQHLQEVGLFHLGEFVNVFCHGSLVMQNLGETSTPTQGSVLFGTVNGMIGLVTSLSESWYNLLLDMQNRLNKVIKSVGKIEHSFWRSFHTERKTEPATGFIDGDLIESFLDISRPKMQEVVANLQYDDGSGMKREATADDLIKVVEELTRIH
Experiment: CK1α HiBiT assay in CK1a_HiBiT_Jurkat cells
Format: cell-based
Conditions: DC50 class, 16 hours, Nano-Glo HiBiT Lytic Detection, read-out: CK1α degradation classification
REPORTED_PROPERTY: DC50

Examples with answers:
What measured DC50 is associated with O=C1CCC(N2Cc3c(cccc3N(CCC3CC3)[C@H]3CC[C@H](NCc4nccs4)CC3)C2=O)C(=O)N1 (stereo partly shown) on CK1α (Homo sapiens, UniProt P48729+Q96SW2)?
≤ 0.1 µM

What measured DC50 is associated with O=C1CCC(N2Cc3c(cccc3N(CCC3CC3)[C@H]3CC[C@H](NCc4ccc(C(F)(F)F)cn4)CC3)C2=O)C(=O)N1 (stereo partly shown) on CK1α (Homo sapiens, UniProt P48729+Q96SW2)?
≤ 0.1 µM

What measured DC50 is associated with O=C1CCC(N2Cc3c(cccc3N(CCC3CC3)[C@H]3CC[C@H](N4CCOCC4)CC3)C2=O)C(=O)N1 (stereo partly shown) on CK1α (Homo sapiens, UniProt P48729+Q96SW2)?
≤ 0.1 µM

What measured DC50 is associated with O=C1CCC(N2Cc3c(cccc3N(CCC3CC3)[C@H]3CC[C@@H](N4CC(C(F)(F)F)C4)CC3)C2=O)C(=O)N1 (stereo partly shown) [Compound 673A] on CK1α (Homo sapiens, UniProt P48729+Q96SW2)?
0.1 to 1 µM

What measured DC50 is associated with O=C1CCC(N2Cc3c(cccc3N(CCC3CC3)[C@H]3CC[C@H](N4CC(C(F)(F)F)C4)CC3)C2=O)C(=O)N1 (stereo partly shown) on CK1α (Homo sapiens, UniProt P48729+Q96SW2)?
≤ 0.1 µM

More entries:
What measured DC50 is associated with O=C1CCC(N2Cc3c(cc(F)cc3N(CCC3CC3)[C@H]3CC[C@@H](NCC4(C(F)(F)F)CC4)CC3)C2=O)C(=O)N1 (stereo partly shown) [Compound 658A] on CK1α (Homo sapiens, UniProt P48729+Q96SW2)?
0.1 to 1 µM

What measured DC50 is associated with O=C1CCC(N2Cc3c(cccc3N(CCC3CC3)[C@H]3CC[C@H](NCc4ncco4)CC3)C2=O)C(=O)N1 (stereo partly shown) on CK1α (Homo sapiens, UniProt P48729+Q96SW2)?
≤ 0.1 µM

What measured DC50 is associated with O=C1CCC(N2Cc3c(cccc3N(CCC3CC3)[C@H]3CC[C@@H](N4CCC(F)(F)C4)CC3)C2=O)C(=O)N1 (stereo partly shown) [Compound 670A] on CK1α (Homo sapiens, UniProt P48729+Q96SW2)?
0.1 to 1 µM

What measured DC50 is associated with O=C1CCC(N2Cc3c(cccc3N(CCC3CC3)[C@H]3CC[C@H](N[C@H]4CC[C@@H]4C(F)(F)F)CC3)C2=O)C(=O)N1 (stereo partly shown) on CK1α (Homo sapiens, UniProt P48729+Q96SW2)?
≤ 0.1 µM

What measured DC50 is associated with CC1(C)CC(CN(c2cccc3c2CN(C2CCC(=O)NC2=O)C3=O)[C@H]2CC[C@@H](NCC3(C(F)(F)F)CC3)CC2)C1 (stereo partly shown) [Compound 657A] on CK1α (Homo sapiens, UniProt P48729+Q96SW2)?
> 1 µM

What measured DC50 is associated with O=C1CCC(N2Cc3c(cccc3N(CCC3CC3)[C@H]3CC[C@H](NCCC(F)F)CC3)C2=O)C(=O)N1 (stereo partly shown) on CK1α (Homo sapiens, UniProt P48729+Q96SW2)?
≤ 0.1 µM

What measured DC50 is associated with CN(CCC(F)(F)F)[C@H]1CC[C@H](N(CCC2CC2)c2cccc3c2CN(C2CCC(=O)NC2=O)C3=O)CC1 (stereo partly shown) on CK1α (Homo sapiens, UniProt P48729+Q96SW2)?
≤ 0.1 µM

What measured DC50 is associated with CN(C)[C@H]1CC[C@H](N(CCC2CC2)c2cccc3c2CN(C2CCC(=O)NC2=O)C3=O)CC1 (stereo partly shown) on CK1α (Homo sapiens, UniProt P48729+Q96SW2)?
≤ 0.1 µM

====

// reported pIC50 per item
System: MV-4-11 cells
Assay: AML cell viability assay (RealTime-Glo)
Assay type: cell-based
Settings: Homo sapiens, MV4-11; IC50 class; MV-4-11 cells, RealTime-Glo after 44 hrs of treatment (TABLE 5); read-out: Cell viability classification
pIC50: −log10 of the molar value.

Need pIC50 of O=C1CCC(N2Cc3c(cccc3N(CCC3CC3)[C@H]3CC[C@H](NCc4ccc(C(F)(F)F)cn4)CC3)C2=O)C(=O)N1 (stereo partly shown) , thanks.
6.00 to 7.00

Need pIC50 of CN(CCC(F)(F)F)[C@H]1CC[C@H](N(CCC2CC2)c2cccc3c2CN(C2CCC(=O)NC2=O)C3=O)CC1 (stereo partly shown) , thanks.
> 7.00

Need pIC50 of O=C1CCC(N2Cc3c(cccc3N(CCC3CC3)[C@H]3CC[C@H](N4CCC(F)(F)CC4)CC3)C2=O)C(=O)N1 (stereo partly shown) , thanks.
6.00 to 7.00

Shift focus to the following entry.
Need pIC50 of CN(CCCC(F)(F)F)[C@H]1CC[C@H](N(CCC2CC2)c2cccc3c2CN(C2CCC(=O)NC2=O)C3=O)CC1 (stereo partly shown) , thanks.
> 7.00

====

Molecular target: CK1α (Homo sapiens, UniProt P48729+Q96SW2)
Test: CK1α degradation, flow cytometry in MV4-11 cells
Type: cell-based
Set-up: CK1α levels were determined in MV-4-11 cells using Jess (Protein Simple); host or cells: MV-4-11
Settings: % reduction of CK1α compared to DMSO, MV4-11 cells at 316 nM for 16 hours, read-out: CK1α degradation classification
Where a name gives a salt, the structure may show the parent alone.
REPORTED_PROPERTY: Dmax at 0.316 µM

Examples with answers:
Need Dmax at 0.316 µM of C[C@@H](N[C@H]1CC[C@@H](N(CCC2CC2)c2cccc3c2CN(C2CCC(=O)NC2=O)C3=O)CC1)C(F)(F)F (stereo partly shown) [Compound 548A] , thanks.
50 to 75%

Need Dmax at 0.316 µM of N[C@H]1CC[C@H](N(CCN2CCOCC2)c2cccc3c2CN(C2CCC(=O)NC2=O)C3=O)CC1 (stereo partly shown) [Compound 244] , thanks.
< 50%

Need Dmax at 0.316 µM of O=C1CCC(N2Cc3c(cccc3N(CC3CC3)[C@H]3CC[C@H](NC4CC(F)(F)C4)CC3)C2=O)C(=O)N1 (stereo partly shown) [Compound 532] , thanks.
> 75%

Shift focus to the following entry.
Need Dmax at 0.316 µM of CC(C)(C)CCCN(c1cccc2c1CN(C1CCC(=O)NC1=O)C2=O)[C@H]1CC[C@H](N)CC1 (stereo partly shown) [Compound 268, HCl] , thanks.
> 75%

====

System: MV-4-11 cells
Assay: AML cell viability assay (RealTime-Glo)
Type: cell-based
Conditions: Homo sapiens, MV4-11; IC50 class; MV-4-11 cells, RealTime-Glo after 44 hrs of treatment (TABLE 1); read-out: Cell viability classification
Counter-ions that a name gives are not always drawn.
// reported IC50 per item

Need IC50 of NC(=O)[C@H]1CC[C@@H](N(CCC2CC2)c2cccc3c2CN(C2CCC(=O)NC2=O)C3=O)C1 (stereo partly shown) , thanks.
< 100 nM

Need IC50 of CCCCCCN(CCCCN)c1cccc2c1CN(C1CCC(=O)NC1=O)C2=O (stereo not shown) , thanks.
< 100 nM

Need IC50 of C/C=C/CN(CCCCN)c1cccc2c1CN(C1CCC(=O)NC1=O)C2=O (stereo not shown) , thanks.
< 100 nM

Need IC50 of CCCCCN(CCCCNC(C)=O)c1cccc2c1CN(C1CCC(=O)NC1=O)C2=O (stereo not shown) , thanks.
< 100 nM

Need IC50 of O=C1CCC(N2Cc3c(cccc3N(CCC3CC3)[C@@H]3CC[C@H](NCC4CC4)C3)C2=O)C(=O)N1 (stereo partly shown) , thanks.
< 100 nM

More entries:
Need IC50 of CCCCN(CCCCN)c1cccc2c1CN(C1CCC(=O)NC1=O)C2=O (stereo not shown) , thanks.
< 100 nM

Need IC50 of N[C@H]1CC[C@H](N(CCCC2CCCCO2)c2cccc3c2CN(C2CCC(=O)NC2=O)C3=O)CC1 (stereo partly shown) [Compound 341, HCl] , thanks.
100 to 1000 nM

Need IC50 of CCCCN(C/C=C\CN)c1cccc2c1CN(C1CCC(=O)NC1=O)C2=O (stereo not shown) , thanks.
< 100 nM

Need IC50 of CCCCCN(c1cccc2c1CN(C1CCC(=O)NC1=O)C2=O)[C@@H]1CC[C@@H](N)C1 (stereo partly shown) , thanks.
< 100 nM

Need IC50 of CNC(=O)[C@H]1CC[C@@H](N(CCCC2CCOCC2)c2cccc3c2CN(C2CCC(=O)NC2=O)C3=O)C1 (stereo partly shown) , thanks.
100 to 1000 nM

Need IC50 of CC(C)CCCCCN(CCCCN)c1cccc2c1CN(C1CCC(=O)NC1=O)C2=O (stereo not shown) , thanks.
100 to 1000 nM

Need IC50 of N[C@H]1CC[C@H](N(CCCC2COC2)c2cccc3c2CN(C2CCC(=O)NC2=O)C3=O)CC1 (stereo partly shown) , thanks.
100 to 1000 nM
